B1: Lysine-specific demethylase 2B, residues 656 to 722; numbered along this chain, Q8NHM5 (parent)
chain: LPHTAVCLVCGEAGKEDTVEEEEGKFNLMLMECSICNEIIHPGCLKIKESEGVVNDELPNCWECPKC

variants of: B1; test: abundance fitness (aPCA) (normalised: wild type 0, dead -1); higher = more abundant; growth selection in yeast, the domain comes from the species named; conditions: Homo sapiens
Assign classes using reported abundance fitness values and the ranges lo = under -0.2, mid = from -0.2 up to -0.01, hi = -0.01 and over, please.

MUTATION | DISCRETE_LABEL
P65V | lo
K46V | mid
D17C | hi
C7Y | lo
E22C | lo
N37W | lo
N27K | hi
D56S | hi
E23C | mid
E22L | mid
